Numbers sourced from patent US6858638B2.

Target: human KDR enzyme (Homo sapiens)
Construct: The cytoplasmic domain of the human KDR enzyme; GST; made in house; host or cells: SF21 insect cells (baculovirus)
Sequence (P35968 786-1356 limits assumed): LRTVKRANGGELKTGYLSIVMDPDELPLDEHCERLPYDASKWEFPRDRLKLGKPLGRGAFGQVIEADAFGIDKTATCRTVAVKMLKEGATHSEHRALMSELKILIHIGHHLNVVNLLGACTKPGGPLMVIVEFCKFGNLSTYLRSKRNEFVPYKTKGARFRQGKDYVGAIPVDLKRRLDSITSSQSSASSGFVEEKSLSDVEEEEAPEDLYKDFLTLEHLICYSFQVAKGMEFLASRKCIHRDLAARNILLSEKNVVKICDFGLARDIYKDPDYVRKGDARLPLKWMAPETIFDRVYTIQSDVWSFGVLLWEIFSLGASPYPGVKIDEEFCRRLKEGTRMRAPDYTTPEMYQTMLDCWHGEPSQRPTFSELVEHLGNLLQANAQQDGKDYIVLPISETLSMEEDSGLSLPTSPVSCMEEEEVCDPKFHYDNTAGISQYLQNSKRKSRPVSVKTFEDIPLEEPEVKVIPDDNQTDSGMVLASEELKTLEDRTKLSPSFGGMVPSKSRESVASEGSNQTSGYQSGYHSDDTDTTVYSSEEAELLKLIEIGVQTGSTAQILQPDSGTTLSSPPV
Test: KDR substrate (PLCγ) phosphorylation, scintillation assay
Assay type: biochemical
Conditions: 10 μM; read-out: KDR % inhib at 10 μM
// reported inhibition at 10 µM per item
Be sure to follow the number with its unit.

The cases that follow already have their inhibition at 10 µM on record.
INSERT INTO results (structure_smiles_string, assay_system, observed_result) VALUES
  ('CC(=O)Nc1ccccc1-c1n[nH]c2ccc(NS(=O)(=O)c3ccccc3S(C)(=O)=O)cc12', 'human KDR enzyme (Homo sapiens)', '9%'),
  ('CS(=O)(=O)c1ccccc1S(=O)(=O)Nc1ccc2[nH]nc(-c3cccc(OC(F)(F)F)c3)c2c1', 'human KDR enzyme (Homo sapiens)', '31%');

Alright, here's another compound for you.
Ask | Look up inhibition at 10 µM for this compound: `CS(=O)(=O)c1ccc(F)cc1S(=O)(=O)Nc1ccc2[nH]nc(-c3ccccc3)c2c1`
Reply | 83%
